System: SEM cells
test.details: cell viability relative to DMSO control; higher = less cytotoxic
condition.label: HPLM + 10% dialyzed FBS; 48 h; 0.00702 µM
Would you kindly list cell viability for each of these compounds?
Answers are plain numbers, in %.

Recorded cell viability, per entry:
smiles.code | metric.name | quantitative.readout
N=C(NCCCCCCNC(=N)NC(=N)Nc1ccc(Cl)cc1)NC(=N)Nc1ccc(Cl)cc1 | cell viability | 95.6
NC/1=N/C2=C([NH]C=N2)C(=S)N1 | cell viability | 106
CNC[C@H](O)c1ccc(O)c(O)c1 | cell viability | 71.9

State recorded cell viability for all listed compounds.
1. CN(C)C1=CC=C(C=C1)C(C2=CC=C(C=C2)N(C)C)=C/3\C=C/C(/C=C3)=[N+](C)C
2. COc1ccc(-c2ccc3c(N4CCOC[C@@H]4C)nc(N4CCOC[C@@H]4C)nc3n2)cc1CO

Reply:
1: 113; 2: 96.6

State recorded cell viability for all listed compounds.
1. C[C@@H]1[C@H](O)[C@@H](C)/C=C/C=C/C=C/C=C/C=C/C=C/C=C/[C@H](O[C@@H]2O[C@H](C)[C@@H](O)[C@H](N)[C@@H]2O)C[C@@H]2O[C@](O)(C[C@@H](O)C[C@@H](O)[C@H](O)CC[C@@H](O)C[C@@H](O)CC(=O)O[C@H]1C)C[C@H](O)[C@H]2C(=O)O
2. CC[C@H](C)[N]1C=C(C)C2=C1C=C(C=C2C(=O)NC\C3=C(C)\C=C(\C)NC3=O)C4=CC=C(N=C4)N5CCNCC5

Reply:
105
112

The values you see were collected from the supplement of paper PMC11451515.
